# TARGET: AKT1 WT (Homo sapiens, UniProt P31749)
# Construct: expressed in transfected cells; host or cells: HEK293
# Sequence (P31749 whole entry): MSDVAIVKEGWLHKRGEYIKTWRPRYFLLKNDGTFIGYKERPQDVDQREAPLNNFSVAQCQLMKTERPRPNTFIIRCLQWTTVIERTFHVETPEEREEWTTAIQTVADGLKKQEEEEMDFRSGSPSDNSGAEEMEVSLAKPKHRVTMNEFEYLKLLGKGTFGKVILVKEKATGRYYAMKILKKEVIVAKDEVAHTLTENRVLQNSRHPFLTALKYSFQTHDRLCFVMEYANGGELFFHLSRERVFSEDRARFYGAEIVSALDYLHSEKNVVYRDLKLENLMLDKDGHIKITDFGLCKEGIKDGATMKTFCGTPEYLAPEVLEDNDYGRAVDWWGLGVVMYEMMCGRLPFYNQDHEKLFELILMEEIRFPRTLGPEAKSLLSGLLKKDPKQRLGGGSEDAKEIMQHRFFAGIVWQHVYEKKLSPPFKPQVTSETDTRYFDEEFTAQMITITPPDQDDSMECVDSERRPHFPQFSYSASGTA
# RUN_DESCRIPTION: Live cell AKT1 WT target engagement by NanoBRET competitive probe displacement in HEK293 cells
# Assay type: binding
# COND: NanoBRET live cell target engagement, HEK293 cells, 2 h at 37° C.; read-out: AKT1 WT IC50
pIC50: −log10 of the molar value.
MEASURED_PARAMETER: pIC50

Known pIC50 results, listed for orientation:
Nc1ncccc1-c1nc2ccc(-n3cccn3)nc2n1-c1ccc2c(c1)CC[C@@H]2n1nnc2ccccc21 [Compound 345] ... 7.29
CC#Cc1ncccc1C(=O)N[C@H]1CCc2cc(-n3c(-c4cccnc4N)nc4ccc(-n5cccn5)nc43)ccc21 [Compound 211] ... 7.49
Nc1ncccc1-c1nc2ccc(-n3cccn3)nc2n1-c1ccc2c(c1)CC[C@@H]2NC(=O)c1cnc2c(c1)CCC2(F)F [Compound 66] ... 8.05
Nc1ncccc1-c1nc2ccc(-n3cccn3)nc2n1-c1ccc2c(c1)CC[C@@H]2NC(=O)Cc1cccnc1 [Compound 48] ... 6.81
Cc1nccnc1C(=O)N[C@H]1CCc2cc(-n3c(-c4cccnc4N)nc4ccc(-n5cccn5)nc43)ccc21 [Compound 118] ... 7.18

(a) Nc1ncccc1-c1nc2ccc(-n3cccn3)nc2n1-c1ccc2c(c1)CC[C@@H]2n1cc(-c2cccnc2)nn1 [Compound 199]
(b) Nc1ncccc1-c1nc2ccc(-n3cccn3)nc2n1-c1ccc2c(c1)CC[C@@H]2NC(=O)c1cc[nH]c(=O)c1 [Compound 318]
(c) Nc1ncccc1-c1nc2ccc(-n3cccn3)nc2n1-c1ccc2c(c1)CC[C@@H]2NC(=O)c1ccnc(OC(F)(F)F)c1 [Compound 64]
(d) Nc1ncccc1-c1nc2ccc(-n3cccn3)nc2n1-c1ccc2c(c1)CC[C@@H]2NC(=O)c1cccnc1Cl [Compound 108]
(e) Cn1cc(C(=O)N[C@H]2CCc3cc(-n4c(-c5cccnc5N)nc5ccc(-n6cccn6)nc54)ccc32)cn1 [Compound 39]
Please give the order of these compounds when sorted by pIC50, largest value leading. To answer, arrange all of the labels according to the requested order.
c, a, d, e, b

(1) Nc1ncccc1-c1nc2ccc(-n3cccn3)nc2n1-c1ccc2c(c1)CC[C@@H]2NC(=O)c1ccc(F)c(O)c1 [Compound 293]
(2) Nc1ncccc1-c1nc2ccc(-n3cccn3)nc2n1-c1ccc2c(c1)CC[C@@H]2NC1CCN(c2ccccn2)CC1 [Compound 277]
(3) Cc1cc(C(=O)N[C@H]2CCc3cc(-n4c(-c5cccnc5N)nc5ccc(-n6cccn6)nc54)ccc32)cnc1C [Compound 115]
Hey, can you sort those compounds up there by pIC50, smallest first? To answer, arrange all of the labels according to the requested order.
2, 1, 3
(2: 7.60, 1: 7.91, 3: 8.29)

(a) Nc1ncccc1-c1nc2ccc(-n3cccn3)nc2n1-c1ccc2c(c1)CC[C@@H]2NC(=O)c1cnc(C(F)F)s1 [Compound 376]
(b) Nc1ncccc1-c1nc2ccc(-n3cccn3)nc2n1-c1ccc2c(c1)CC[C@@H]2NC(=O)c1cncc(OC(F)(F)F)c1 [Compound 138]
(c) Nc1ncccc1-c1nc2ccc(-n3cccn3)nc2n1-c1ccc2c(c1)CC[C@@H]2NC(=O)c1cccnc1C1CC1 [Compound 103]
(d) Cn1ccc(C(=O)N[C@H]2CCc3cc(-n4c(-c5cccnc5N)nc5ccc(-n6cccn6)nc54)ccc32)n1 [Compound 13]
Hey, can you sort those compounds up there by pIC50, smallest first? To answer, arrange all of the labels according to the requested order.
d, c, b, a
(d: 7.31, c: 7.60, b: 7.87, a: 8.09)
